measurementNotes: protein stability index of a GFP-peptide fusion (yeast GPS) (PSI 1-4); higher = more stable; sorted into four equal gates, so the index is relative within each strain
testSettings: ubr1∆
quantityName: protein stability index
Give a plain numeric answer without units written out.

Please review the following examples before continuing.
{"columns": ["constructSequence", "protein stability index"],
 "data": [
  ["VLESHWKQDLTKEEAIK [PUP1]", 3.08],
  ["ANNIVNIVSDAGANDTS [GRR1]", 3.13],
  ["DFLLSDWNKRFSHLAGG [BRR2]", 2.85]
]}

protein stability index reading for KALPIRRDDEVLVVRGS [RPL26A] : 3.32

protein stability index reading for TDLESKSRMINFLDAPG [SNU114] : 2.8

protein stability index reading for IINKVLDYQETYVEELF [YJL039C/NUP192] : 2.6

protein stability index reading for NAELLDYLFHLLISLNI [YLR018C/POM34] : 1.28

protein stability index reading for THNFKLSGVSNSMDMVD [RGR1] : 3.08

protein stability index reading for DDVTCDKLSVSEISDGK [SIN4] : 3.29

protein stability index reading for KGVLLYGPPGTGKTLLA [RPT4] : 2.29

protein stability index reading for ADVFTDDDLFETLVLSY [YCG1] : 2.06
